# protocol-details: soluble on expression in E. coli; label from the status in PepcDB or PDB records
experimental-readout: soluble on expression in E. coli

>>> result_value("MDSLMRVFSHRSPPPSFGFACDVGAHPSSTAQNLPMTYGSVREMIDDFSIVFGVPKYRTSKPKKVTRKFSFTRLLQPIDNLVTCPACSNIHPSDTICDACYAKVHQLTSEIKKKMMQYNPYVGEKQDKEVYVKFRGEPDAPAAVVKGKRVLEIEKERPTWFKKLTLKE")
"not soluble"
>>> result_value("MGSDKIHHHHHHMNAIQCETRTYEREYNTHDHSYGQMLFALHGAMEIQTPVYDTFQLEANFGLYLPPHVNHRFRAVARNEFIVVDIPARFLGDAVTTEQHVALDETWGALCHLFRGEAYQPASSQSLRPLVDYLTSKLAKKTLPASIHYMKQHFSEPLSLETLAAIEHYHPAYYSSWFKGYTGMSPSEYLQKLRVKAAKRLLGETTWSVARISIEVGYTHPSGLVRAFTKVEGMTPSAYRNTLH")
"not soluble"
>>> result_value("MGSDKIHHHHHHMQKLMHCSIMDLRLLVAVADAGNMSKGGAVCFLAPSTASLRIKHLEAIVGTRLFRREARGVSLTRAGQIMVDHSRRCLTEIEQMQASLTPFSEDVHAQLVLYANSSAIASFLPGDLQGFLQSHPKARITLEEHLSRDVLVAVVEGRADIGILTKDEPHPDLVYFPYHEDEIVLLLAETQPWTKTEPVAFLDCLSFPFVSQQNGSAIHSFLLAKASEQGRRVDVRIQVAGFAAVASMVRSGVGVAIVPRSALAAINVEGLRVVALSDAWARRTLSLCVRRDVLGSRNYVTALVDVLRQSGDQAGVADSA")
"not soluble"
>>> result_value("MSFNLSVIGAGLPVAQSTTTLIDALRTHRMAVVQAPPGTGKTTLVPPIAHNVTGGRVIVVAPRRVAVRAAAHHLVQLDQSSCDQPSTHRVGYTIRGERSRGDLVEFVTPGVLLRRLISNPELDGVSAVVVDEVHERQLDTDLVLGMLVELRELRDDLTVIAMSAT")
"not soluble"
